# Study target: Recombinant human FAP (Homo sapiens, UniProt Q12884)
# Construct: purchased R&D systems
# Sequence (Q12884 whole entry): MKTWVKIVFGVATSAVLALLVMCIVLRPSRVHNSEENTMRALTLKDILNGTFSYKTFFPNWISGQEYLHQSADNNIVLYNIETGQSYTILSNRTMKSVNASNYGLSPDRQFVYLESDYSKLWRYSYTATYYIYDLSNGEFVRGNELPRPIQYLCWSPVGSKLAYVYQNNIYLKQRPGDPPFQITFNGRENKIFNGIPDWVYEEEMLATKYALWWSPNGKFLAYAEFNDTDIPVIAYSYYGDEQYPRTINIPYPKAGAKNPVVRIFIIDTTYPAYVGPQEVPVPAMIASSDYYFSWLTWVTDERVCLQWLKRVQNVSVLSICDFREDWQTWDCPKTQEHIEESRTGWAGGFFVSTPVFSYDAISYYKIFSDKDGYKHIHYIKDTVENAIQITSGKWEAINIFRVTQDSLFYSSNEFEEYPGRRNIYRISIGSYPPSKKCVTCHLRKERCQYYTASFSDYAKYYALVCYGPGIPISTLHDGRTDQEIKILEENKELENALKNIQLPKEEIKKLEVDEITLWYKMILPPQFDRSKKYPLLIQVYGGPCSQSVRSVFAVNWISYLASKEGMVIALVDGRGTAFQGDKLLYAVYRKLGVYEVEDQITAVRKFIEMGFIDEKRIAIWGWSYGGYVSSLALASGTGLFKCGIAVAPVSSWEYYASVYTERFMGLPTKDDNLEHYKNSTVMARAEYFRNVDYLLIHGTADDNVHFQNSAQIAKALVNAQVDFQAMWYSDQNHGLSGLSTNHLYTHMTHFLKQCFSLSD
# Assay details: FAP inhibition, fluorogenic substrate Z-Gly-Pro-AMC
# Assay type: biochemical
# Condition: read-out: hFAP inhibition % at 1 μM

| Chem smiles | Study target | inhibition at 1 µM / % |
| --- | --- | --- |
| Cc1oc2ccccc2c1C(=O)N[C@H]1CCN(CC(=O)N2CCC[C@H]2C#N)C1 | Recombinant human FAP (Homo sapiens, UniProt Q12884) | 84.6 |
| N#C[C@@H]1CCCN1C(=O)CN1CC[C@H](Oc2cccc(Oc3ccccc3)c2)C1 | Recombinant human FAP (Homo sapiens, UniProt Q12884) | 57.9 |
| CC(=O)N1CCN(c2ccc(O[C@H]3CCN(CC(=O)N4CCC[C@H]4C#N)C3)cc2)CC1 | Recombinant human FAP (Homo sapiens, UniProt Q12884) | 63.2 |
| N#C[C@@H]1CCCN1C(=O)CN1CC[C@H](NS(=O)(=O)c2cc3ccccc3s2)C1 | Recombinant human FAP (Homo sapiens, UniProt Q12884) | 44.2 |
| N#C[C@@H]1CCCN1C(=O)CN1CC[C@H](Oc2cc(-c3ccc(Br)cc3)no2)C1 | Recombinant human FAP (Homo sapiens, UniProt Q12884) | 52.4 |
| N#C[C@@H]1CCCN1C(=O)CN1CC[C@H](Oc2cccc3c(Cl)ncnc23)C1 | Recombinant human FAP (Homo sapiens, UniProt Q12884) | 97.1 |
| N#C[C@@H]1CCCN1C(=O)CN1CC[C@H](Oc2ccc(-c3ccccc3)cc2)C1 | Recombinant human FAP (Homo sapiens, UniProt Q12884) | 68.1 |
| N#C[C@@H]1CCCN1C(=O)CN1CC[C@H](Oc2cccc(-c3ccccc3)c2)C1 | Recombinant human FAP (Homo sapiens, UniProt Q12884) | 72.6 |
